Recorded values, source patent US10759751B2.

# experimental_target: UniProt:P11229
# assay: Alphascreen Surefire phospho-ERK1/2 functional assay, M1
# Format: cell-based
# assay_setup: CHO cells stably expressing human M1; phospho-ERK1/2; read-out: pEC50 M1 (converted)
reported_metric: EC50

1. CCOC(=O)N1CCCN(C2CCC(C#N)(c3ccc(Cl)cn3)CC2)CC1 (mixture of isomers) [3-16 mixture of isomers] : 6.61 nM
2. Cc1noc([C@@H]2CCCN(C3CCC4(CC3)C(=O)Nc3ccccc34)C2)n1 (single isomer, unassigned) [22-1 Isomer 1] : 229 nM
3. CCOC(=O)N[C@H]1CCN(C2CCC3(CC2)C(=O)N(C(=O)OCC)c2ccccc23)C1 (single isomer, unassigned) [2-14 isomer 2] : 117 nM
4. CCOC(=O)N1CCCN(C2CCC(c3nc(CC)c(C)[nH]3)CC2)CC1 (single isomer, unassigned) [5-1 Isomer 2] : 66.1 nM
5. CCOC(=O)N[C@H]1CCN(C2CCC3(CC2)C(=O)Nc2cnc(OC)cc23)C1 (single isomer, unassigned) [2-19 isomer 1] : 2090 nM
6. CCOC(=O)N1CCCN(C2CCC(C#N)(c3ccccc3C)CC2)CC1 (mixture of isomers) [3-7 mixture of isomers] : 389 nM
7. CCOC(=O)N[C@H]1CCN(C2CCC(C#N)(c3cccc(C)c3)CC2)C1 (single isomer, unassigned) [1-9 Isomer 2] : 27.5 nM
8. CCOC(=O)N1CCCN(C2CCC(C#N)(c3ccc(F)cc3)CC2)CC1 (mixture of isomers) [3-3 mixture of isomers] : 9.77 nM
9. CCOC(=O)N[C@@H]1CCN(C2CCC(C#N)(c3cccc(F)c3)CC2)C1 (single isomer, unassigned) [1-6 Isomer 2] : 229 nM
10. CCOC(=O)N1CCC2(CCN(C3CCC4(CC3)C(=O)Nc3ccccc34)CC2)C1 (single isomer, unassigned) [12-1 isomer 1] : 13.8 nM
11. CCOC(=O)N[C@@H]1CCN(C2CCC(C#N)(c3ccccc3)CC2)C1 (single isomer, unassigned) [1-2 Isomer 2] : 209 nM
12. CCOC(=O)N[C@H]1CCN(C2CCC3(CC2)C(=O)Nc2ccc(OC)cc23)C1 (single isomer, unassigned) [2-10 isomer 1] : 7.94 nM
13. Cc1ccc2c(c1)C1(CCC(N3CCC[C@@H](c4nc(C)no4)C3)CC1)C(=O)N2 (single isomer, unassigned) [22-3 Isomer 1] : 123 nM

* * *

Listed here are compounds together with their documented EC50.
# experimental_target: human muscarinic M1 receptor (Homo sapiens, UniProt P11229)
# Sequence (P11229 whole entry): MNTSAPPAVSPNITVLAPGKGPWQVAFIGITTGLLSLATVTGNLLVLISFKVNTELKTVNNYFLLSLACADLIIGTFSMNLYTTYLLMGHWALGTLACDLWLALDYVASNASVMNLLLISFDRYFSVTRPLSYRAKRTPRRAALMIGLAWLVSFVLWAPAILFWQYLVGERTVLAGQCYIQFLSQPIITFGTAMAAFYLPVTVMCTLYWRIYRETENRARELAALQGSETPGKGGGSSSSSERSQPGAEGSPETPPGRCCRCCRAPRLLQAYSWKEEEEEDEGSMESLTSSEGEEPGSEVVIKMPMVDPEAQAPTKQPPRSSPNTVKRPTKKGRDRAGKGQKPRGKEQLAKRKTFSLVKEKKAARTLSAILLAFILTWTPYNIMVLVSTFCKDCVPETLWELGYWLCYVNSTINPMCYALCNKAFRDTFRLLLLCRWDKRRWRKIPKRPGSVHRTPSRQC
# assay: Alphascreen Surefire phospho-ERK1/2 functional assay, M1
# Assay type: cell-based
# assay_setup: CHO cells stably expressing human M1; phospho-ERK1/2; read-out: pEC50 M1 (converted)
reported_metric: EC50 (nM)

1. CCOC(=O)N1CCC2CN(C3CCC(C#N)(c4ccccc4)CC3)CC21 (single isomer, unassigned) [15-1 Isomer 2] : 155
2. CCOC(=O)NCC1CCN(C2CCC(C#N)(c3ccccc3)CC2)CC1 (single isomer, unassigned) [6-2-Isomer 2] : 58.9
3. CCOC(=O)N[C@H]1CCN(C2CCC(C#N)(c3cccc(OC)c3)CC2)C1 (single isomer, unassigned) [1-11 Isomer 2] : 148
4. CCOC(=O)N[C@H]1CCN(C2CCC3(CC2)C(=O)Nc2cc(OC)ccc23)C1 (single isomer, unassigned) [2-9 isomer 1] : 282
5. CCOC(=O)NCC1CCN(C2CCC3(CC2)C(=O)Nc2ccccc23)CC1 (single isomer, unassigned) [7-2 isomer 1] : 75.9
6. CCOC(=O)N1CCCN(C2CCC3(CC2)C(=O)Nc2ncc(OC)cc23)CC1 (single isomer, unassigned) [4-17 isomer 2] : 437
